Hi there, I'd appreciate the recorded IC50 for every entry that follows.
Tested on: KB85
Assay: cells
Type: cell-based
Conditions: 72 h, 3 days, SRB
Procedure: Cell Survival Assay: Standard Pharmacological Test Procedure. […] Compounds are incubated with cells for 3 days.
Numbers only, in nM.

Task: Return IC50 (reported value) for this molecule: CN[C@H](C(=O)N[C@H](C(=O)N(C)[C@@H](/C=C(\C)C(=O)OCc1ccc(OCc2ccccc2)cc1)C(C)C)C(C)(C)C)C(C)(C)c1ccccc1 [Example 54]
Result: 846

Task: Provide only the value of recorded IC50 for CN[C@H](C(=O)N[C@H](C(=O)N(C)[C@H](/C=C(\C)C(=O)N1CCC[C@H]1C(=O)OC)C(C)C)C(C)(C)C)C(C)(C)c1cccc(C)c1 [Example 21]
Result: 6.2

Task: Read the entry CN[C@H](C(=O)N[C@H](C(=O)N(C)[C@H](/C=C(\C)C(=O)O)C(C)C)C(C)(C)C)C12CC3CC(CC(C3)C1)C2 [Example 55] and write its reported IC50.
Result: 646

Task: Note down IC50 recorded for CN[C@H](C(=O)N[C@H](C(=O)N(C)[C@H](/C=C(\C)C(=O)N1CCC[C@H]1C(=O)OC)C(C)C)C(C)(C)C)C(C)(C)C1CCCCC1 [Example 45]
Result: 16

Task: Recall and state the measured IC50 for CN[C@H](C(=O)N[C@H](C(=O)N(C)[C@H](/C=C(\C)C(C)=O)C(C)C)C(C)(C)C)C(C)(C)c1ccccc1 [Example 84] .
Result: 664

Would you be so kind as to report IC50 for each listed record?
1. CSC(C(=O)N[C@H](C(=O)N(C)[C@H](/C=C(\C)C(=O)O)C(C)C)C(C)(C)C)C(C)(C)c1ccccc1 (stereo partly shown) [Example 102]
2. CN[C@H](C(=O)N[C@H](C(=O)N(C)[C@H](/C=C1/C(=O)NC(=O)N1C)C(C)C)C(C)(C)C)C(C)(C)c1ccccc1 [Example 89]
3. CN[C@@H](C(=O)N[C@H](C(=O)N(C)[C@H](/C=C(\C)C(=O)N1CCN(Cc2ccccc2)CC1)C(C)C)C(C)(C)C)C(C)(C)c1ccc(C)c(C)c1 [Example 13]

Result:
1. 1150
2. 9.9
3. 352
